Origin of values: ChEMBL document CHEMBL1811765

Assay explanation: Inhibition of bovine brain tubulin polymerization after 20 mins by turbidimetric analysis
Set-up: species or system Bos taurus
Measured attribute: IC50 (µg/mL)
Answer in µg/mL, number only, no unit symbol.

Reference set (5 entries):
- Smiles notation: "CN(C)c1ccc(/C=C/C(=O)NS(=O)(=O)c2ccc(F)cc2)cc1"
  IC50 / µg/mL: 10
- Smiles notation: "O=C(/C=C/c1ccc(F)cc1)NS(=O)(=O)c1ccc(Cl)cc1"
  IC50 / µg/mL: 4.5
- Smiles notation: "COc1ccc(/C=C/C(=O)NS(=O)(=O)c2ccc(F)cc2)cc1"
  IC50 / µg/mL: 45
- Smiles notation: "O=C(/C=C/c1ccc(Cl)cc1)NS(=O)(=O)c1ccc(F)cc1"
  IC50 / µg/mL: 8.9
- Smiles notation: "O=C(/C=C/c1ccc([N+](=O)[O-])cc1)NS(=O)(=O)c1ccccc1"
  IC50 / µg/mL: 50

What value of IC50 has been reported for the following molecule? O=C(/C=C/c1ccc(Br)cc1)NS(=O)(=O)c1ccc(Br)cc1
53

What value of IC50 has been reported for the following molecule? CN(C)c1ccc(/C=C/C(=O)NS(=O)(=O)c2ccc(Cl)cc2)cc1
14

What value of IC50 has been reported for the following molecule? O=C(/C=C/c1ccc(Cl)cc1)NS(=O)(=O)c1ccc(Br)cc1
10.8

What value of IC50 has been reported for the following molecule? O=C(/C=C/c1ccccc1[N+](=O)[O-])NS(=O)(=O)c1ccccc1
74

What value of IC50 has been reported for the following molecule? O=C(/C=C/c1ccccc1)NS(=O)(=O)c1ccc(F)cc1
4.5

What value of IC50 has been reported for the following molecule? Cc1ccc(S(=O)(=O)NC(=O)/C=C/c2ccc([N+](=O)[O-])cc2)cc1
151

What value of IC50 has been reported for the following molecule? O=C(/C=C/c1ccc([N+](=O)[O-])cc1)NS(=O)(=O)c1ccc(F)cc1
6.3

What value of IC50 has been reported for the following molecule? O=C(/C=C/c1ccccc1[N+](=O)[O-])NS(=O)(=O)c1ccc(Cl)cc1
78

What value of IC50 has been reported for the following molecule? Cc1ccc(S(=O)(=O)NC(=O)/C=C/c2ccccc2[N+](=O)[O-])cc1
102

What value of IC50 has been reported for the following molecule? O=C(/C=C/c1ccc(F)cc1)NS(=O)(=O)c1ccc(F)cc1
2.4

What value of IC50 has been reported for the following molecule? Cc1ccc(S(=O)(=O)NC(=O)/C=C/c2ccc(Cl)cc2)cc1
30

What value of IC50 has been reported for the following molecule? Cc1ccc(S(=O)(=O)NC(=O)/C=C/c2ccc(F)cc2)cc1
40

What value of IC50 has been reported for the following molecule? COc1ccc(/C=C/C(=O)NS(=O)(=O)c2ccc(Br)cc2)cc1
53

What value of IC50 has been reported for the following molecule? COc1ccc(/C=C/C(=O)NS(=O)(=O)c2ccccc2)cc1
160

What value of IC50 has been reported for the following molecule? O=C(/C=C/c1ccccc1)NS(=O)(=O)c1ccccc1
37

---

System: B16-F10
Assay explanation: Antiproliferative activity against mouse B16F10 cells after 48 hrs by MTT based ELISA assay
Assay type: functional, cell-based
Test parameters: B16-F10, 48 h
Measured attribute: IC50 (µg/mL)
Answer in µg/mL, number only, no unit symbol.

- Smiles notation: "O=C(/C=C/c1ccc(Cl)cc1)NS(=O)(=O)c1ccc(F)cc1"
  Experimental value: 2

What value of IC50 has been reported for the following molecule? O=C(/C=C/c1ccccc1)NS(=O)(=O)c1ccc(F)cc1
2.1

What value of IC50 has been reported for the following molecule? O=C(/C=C/c1ccc([N+](=O)[O-])cc1)NS(=O)(=O)c1ccc(Br)cc1
13.9
